In this section, each of the molecules is paired with its reported pest or weed control at 250 g/ha.
Tested on: Alopecurus myosuroides (ALOMY)
test summary: Glasshouse assay for herbicidal activity (pre- and post-emergence), percentage phytotoxicity
Assay type: in vivo
assay conditions: Alopecurus myosuroides, pre-emergence, 480 h, Rate 250 g/ha; pre-emergence; assessed visually 20 DAA; 100%=total damage, 0%=no damage; read-out: Pre-emergence herbicidal activity (percentage phytotoxicity) ALOMY PRE
Method: Test—Glasshouse Assay for Herbicidal Activity Seeds of a variety of monocotyledonous and dicotyledonous test plants are sown in standard soil in pots. The plants are cultivated for one day (for pre-emergence (PRE)) or for about 12 days (for post-emergence (POST)) under controlled conditions in a glasshouse (warm climate species at 24/18° C., cool climate species at 20/16° C., both at day/night; 16 hours light; 65% humidity). […]
// note: answer is a bare numeric in %

Query block: Please give measured pest or weed control at 250 g/ha of the following entry: C#CCNC(=O)CC1CC(=O)C(c2c(C)cc(C)cc2C)C1=O (centres unmarked)
Result block: 70

Query block: Please give measured pest or weed control at 250 g/ha of the following entry: Cc1cc(-c2ccc(C(F)(F)F)cn2)cc(C)c1C1C(=O)CC(CC(=O)NCc2cccc(C(F)(F)F)c2)C1=O (centres unmarked)
Result block: 30

Query block: Please give measured pest or weed control at 250 g/ha of the following entry: Cc1cc(-c2ccc(Cl)cn2)cc(C)c1C1C(=O)CC(CC(=O)NCc2ncccc2Cl)C1=O (centres unmarked)
Result block: 90

Query block: Please give measured pest or weed control at 250 g/ha of the following entry: Cc1cc(-c2ncc(F)cn2)cc(C)c1C1C(=O)CC(CC(=O)NCc2cccc(C(F)(F)F)c2)C1=O (centres unmarked)
Result block: 100

Query block: Please give measured pest or weed control at 250 g/ha of the following entry: Cc1cc(C)c(C2C(=O)CC(CC(=O)NC3CC3)C2=O)c(C)c1 (centres unmarked)
Result block: 80

---
Query block: Please give measured pest or weed control at 250 g/ha of the following entry: Cc1cc(C)c(C2C(=O)CC(CC(=O)NCc3ccc(C)o3)C2=O)c(C)c1 (centres unmarked)
Result block: 30

Query block: Please give measured pest or weed control at 250 g/ha of the following entry: CCN(C)C(=O)CC1CC(=O)C(c2c(C)cc(C)cc2C)C1=O (centres unmarked)
Result block: 70

Query block: Please give measured pest or weed control at 250 g/ha of the following entry: Cc1cc(C)c(C2C(=O)CC(CC(=O)N3CCSCC3)C2=O)c(C)c1 (centres unmarked)
Result block: 10
